Quick reference for MIC among some compounds
test system: C. glabrata; test: Minimum inhibitory concentration broth double-dilution assay; type: cell-based, Candida glabrata; settings: #22 C. glabrata M12; 24 h, 30 °C
*1 amine or outer side, *2 acyl side, *3 side chain or, on linkers, in order; H or OH if unused. Where a SMILES comes first, the peptide text is derived from it. Bridges are numbered along the chain shown (N, C = ends). [ ]: non-standard residue; d: D form. The star is where a group is joined. Orn(4R-OH,5R-OCH2CH2NMe3+) = C[N+](C)(C)CCO[C@@H](N[*:3])[C@H](O)C[C@H](N[*:1])C(=O)[*:2]; hTyr(3S-OH,4S-OH,3'-OSO3H) = N[C@H](C(=O)O)[C@H](O)[C@@H](O)c1ccc(O)c(OS(=O)(=O)O)c1; pTerphenylCO(4''-OnC5H11) = CCCCCOc1ccc(-c2ccc(-c3ccc(C(=O)*)cc3)cc2)cc1; Orn(4R-OH,5R-OH) = O=C([C@H](C[C@@H](O)[C@@H](O)N[*:3])N[*:1])[*:2]; hTyr(3S-OH,4S-OH) = N[C@H](C(=O)O)[C@H](O)[C@@H](O)c1ccc(O)cc1; Pro(3S-OH,4S-Me) = C[C@H]1CN[C@H](C(=O)O)[C@H]1O; X1 = CCCCCOc1ccc(-c2cc(-c3ccc(C(=O)*)cc3)no2)cc1; hTyr(3R-OH) = N[C@H](C(=O)O)[C@H](O)Cc1ccc(O)cc1; Gln(3R-OH) = NC(=O)C[C@@H](O)[C@H](N)C(=O)O; Hyp = O=C(O)[C@@H]1C[C@@H](O)CN1

compound	MIC
CC[C@H](C)C[C@H](C)CCCCCCCCC(=O)N[C@H]1C[C@@H](O)[C@@H](NCCN)NC(=O)[C@@H]2[C@@H](O)CCN2C(=O)[C@H]([C@H](O)CCN)NC(=O)[C@H]([C@H](O)[C@@H](O)c2ccc(O)cc2)NC(=O)[C@@H]2C[C@@H](O)CN2C(=O)[C@H]([C@@H](C)O)NC1=O	15 ng/mL
CCCCCOc1ccc(-c2ccc(-c3ccc(C(=O)N[C@H]4C[C@@H](O)[C@@H](O)NC(=O)[C@@H]5[C@@H](O)[C@@H](C)CN5C(=O)[C@H]([C@@H](C)O)NC(=O)[C@H]([C@H](O)Cc5ccc(O)cc5)NC(=O)[C@@H]5C[C@@H](O)CN5C(=O)[C@H]([C@@H](C)O)NC4=O)cc3)cc2)cc1 [Compound 1, dehydroxy-ANF] ({pTerphenylCO(4''-OnC5H11)}-[Orn(4R-OH,5R-OH)]T[Hyp][hTyr(3R-OH)]T[Pro(3S-OH,4S-Me)]; lactam 1-C)	2 ng/mL
CCCCCOc1ccc(-c2ccc(-c3ccc(C(=O)N[C@H]4C[C@@H](O)[C@@H](O)NC(=O)[C@@H]5[C@@H](O)[C@@H](C)CN5C(=O)[C@H]([C@@H](C)O)NC(=O)[C@H]([C@H](O)[C@@H](O)c5ccc(O)cc5)NC(=O)[C@@H]5C[C@@H](O)CN5C(=O)[C@H]([C@@H](C)O)NC4=O)cc3)cc2)cc1 [ANF, anidulafungin] ({pTerphenylCO(4''-OnC5H11)}-[Orn(4R-OH,5R-OH)]T[Hyp][hTyr(3S-OH,4S-OH)]T[Pro(3S-OH,4S-Me)]; lactam 1-C)	2 ng/mL
CCCCCOc1ccc(-c2cc(-c3ccc(C(=O)N[C@H]4C[C@@H](O)[C@@H](O)NC(=O)[C@@H]5[C@@H](O)[C@@H](C)CN5C(=O)[C@H]([C@H](O)CC(N)=O)NC(=O)[C@H]([C@H](O)[C@@H](O)c5ccc(O)c(OS(=O)(=O)O)c5)NC(=O)[C@@H]5C[C@@H](O)CN5C(=O)[C@H]([C@@H](C)O)NC4=O)cc3)no2)cc1 [MCF, micafungin] (X1-[Orn(4R-OH,5R-OH)]T[Hyp][hTyr(3S-OH,4S-OH,3'-OSO3H)][Gln(3R-OH)][Pro(3S-OH,4S-Me)]; lactam 1-C)	2 ng/mL
CCCCCOc1ccc(-c2ccc(-c3ccc(C(=O)N[C@H]4C[C@@H](O)[C@@H](OCC[N+](C)(C)C)NC(=O)[C@@H]5[C@@H](O)[C@@H](C)CN5C(=O)[C@H]([C@@H](C)O)NC(=O)[C@H]([C@H](O)Cc5ccc(O)cc5)NC(=O)[C@@H]5C[C@@H](O)CN5C(=O)[C@H]([C@@H](C)O)NC4=O)cc3)cc2)cc1 [Compound 2, dehydroxy-RZF] ({pTerphenylCO(4''-OnC5H11)}-[Orn(4R-OH,5R-OCH2CH2NMe3+)]T[Hyp][hTyr(3R-OH)]T[Pro(3S-OH,4S-Me)]; lactam 1-C)	2 ng/mL
CCCCCOc1ccc(-c2ccc(-c3ccc(C(=O)N[C@H]4C[C@@H](O)[C@@H](OCC[N+](C)(C)C)NC(=O)[C@@H]5[C@@H](O)[C@@H](C)CN5C(=O)[C@H]([C@@H](C)O)NC(=O)[C@H]([C@H](O)[C@@H](O)c5ccc(O)cc5)NC(=O)[C@@H]5C[C@@H](O)CN5C(=O)[C@H]([C@@H](C)O)NC4=O)cc3)cc2)cc1 [RZF, rezafungin] ({pTerphenylCO(4''-OnC5H11)}-[Orn(4R-OH,5R-OCH2CH2NMe3+)]T[Hyp][hTyr(3S-OH,4S-OH)]T[Pro(3S-OH,4S-Me)]; lactam 1-C)	8 ng/mL
